protocol-description: Plasma levels of isobutyramide after administration
Format: in vivo, baboon and human
condition-info: plasma; after oral or parenteral administration; species not specified (baboons and humans)
measured-endpoint: half-life

Data request: Provide half-life value for the following molecule: CC(C)C(N)=O [isobutyramide, Isobutyramide]
Data returned: 456 to 630 min
